Entry source: ChEMBL document CHEMBL1201862

Tested on: BT-549
Procedure text: NCI tumour cell line growth inhibition, 48 h
Active and inactive are the calls of the source. No stated cut-off is given here; in the data, active = GI50 up to about 1.1 µM and inactive = higher. Where a SMILES comes first, the peptide text is derived from it. The star is where a group is joined. Boc = CC(C)(C)OC(=O)*; OBn = c1ccc(CO*)cc1
Measurement name: GI50

Worked examples, 4 compounds total:
{"columns": ["Compound", "GI50"],
 "data": [
  ["O=c1oc2ccc([N+](=O)[O-])cc2cc1Br", "> 100 µM (inactive)"],
  ["Cc1cn(C(=O)NC23CC4CC(CC(C4)C2)C3)c(=O)[nH]c1=O", "21.8 µM (inactive)"],
  ["O=C1C[C@H](c2ccccc2)C2(C(=O)c3ccccc3C2=O)[C@H](c2ccccc2)C1", "86.9 µM (inactive)"],
  ["COn1cc(C=O)c2ccccc21", "> 100 µM (inactive)"]
]}

Record CC(NC(=O)C(Cc1ccccc1)NC(=O)C(Cc1ccccc1)NC(=O)OC(C)(C)C)C(=O)OCc1ccccc1 (stereo not drawn) (Boc-Phe-Phe-Ala-OBn; configuration not given here) . Reported GI50: > 100 µM (inactive)

Record CC1(C)C(=O)/C(=C/c2ccccc2)C(C)(C)C1(C)C . Reported GI50: 36.1 µM (inactive)

Record N#CC(C#N)=CNCCN1CCN(C=C(C#N)C#N)CC1 . Reported GI50: > 100 µM (inactive)

Record Oc1[nH]c(Nc2cccc(CC(F)(F)F)c2)nc2ncnc1-2 . Reported GI50: > 100 µM (inactive)

Record O=CN1CCN(C(=O)c2cc(Cl)cc(Cl)c2)C1=S . Reported GI50: 17.3 µM (inactive)

Record CN(Cc1ccccc1)C(=S)S [SODIUM BENZYL(METHYL)CARBAMODITHIOATE] . Reported GI50: 77.4 µM (inactive)

Record NC(Cc1c[nH]c2ccc([N+](=O)[O-])cc12)C(=O)O (centres undefined) . Reported GI50: > 100 µM (inactive)

Record Nc1ccc2c(c1)C(=O)c1c(F)cccc1-2 . Reported GI50: 39.3 µM (inactive)

====

Tested on: DMS-273
Procedure text: NCI tumour cell line growth inhibition, 48 h
Calls of active or inactive are those of the source. No stated cut-off is given here; in the data, active = GI50 up to about 1.1 µM and inactive = higher.
// one of Yes = active, No = inactive, no free text

Answered cases to consult:
{"columns": ["Compound", "Assay target", "Assigned category"],
 "data": [
  ["CC(C)C(Sc1nc(-c2ccccc2)c(-c2ccccc2)[nH]1)C(=O)N/N=C/c1ccc([N+](=O)[O-])cc1 (configuration not stated)", "DMS-273", "No"],
  ["COCN(C)c1nc(N(C)C)nc(N(C)C)n1", "DMS-273", "No"],
  ["COc1ccc(OC)c(NC(=O)CCC/C(CC(=O)c2ccc(O)c(OC)c2)=N\\Nc2nnc(C)n2N)c1", "DMS-273", "No"],
  ["Cc1cc2c(cc1CO)N1Cc3cc(C)c(CO)cc3N(C2)C1", "DMS-273", "No"],
  ["CCOC(=O)C(=O)Nc1ccc(Cl)c(C(F)(F)F)c1", "DMS-273", "No"],
  ["CCOC(=O)C(=O)Nc1cc(Cl)c(Cl)cc1Cl", "DMS-273", "No"]
]}

### Prompt // outcome(item) with item = CCOC(=O)C1(Br)C(c2ccccc2)NC(=O)N(C2OC(COC(=O)c3ccccc3)C(OC(=O)c3ccccc3)C2OC(=O)c2ccccc2)C1(C)Br (configuration not stated)
### Response No

### Prompt // outcome(item) with item = CN(C)CN(C)c1nc(N(C)C)nc(N(C)CN(C)C)n1
### Response No

### Prompt // outcome(item) with item = C=CCC12CC(=O)CCC1c1ccc(OC)cc1C2=O (configuration not stated)
### Response No

### Prompt // outcome(item) with item = Cc1cccc(C)c1NC(=O)C(=O)CC(=O)CO
### Response No

### Prompt // outcome(item) with item = CC(C)C12Cc3c(ccc4ccccc34)OC1(C)Oc1ccc3ccccc3c1C2 (configuration not stated)
### Response No

### Prompt // outcome(item) with item = CC(C)OP(=O)(OC(C)C)/C(=N/Nc1ccc([N+](=O)[O-])cc1)NCCN/C(=N\Nc1ccc([N+](=O)[O-])cc1)P(=O)(OC(C)C)OC(C)C
### Response No

### Prompt // outcome(item) with item = COc1cc(C2c3cc4c(cc3[C@@H](OCCN(C)C)C3COC(=O)[C@H]23)OCO4)cc(OC)c1O (some centres not stated)
### Response Yes

### Prompt // outcome(item) with item = O=C(Nc1ccccc1-c1nn(CO)c(=S)n(CO)c1=O)C(F)(F)F
### Response No

### Prompt // outcome(item) with item = c1ccc2c(c1)C1CCCCCC21N1CCOCC1 (configuration not stated)
### Response No

### Prompt // outcome(item) with item = CCCCCCCCCc1cc(=O)c2ccc(O)cc2o1
### Response No

### Prompt // outcome(item) with item = COC(=O)C1=C(c2ccc3c(c2)OCO3)OC(c2ccc3c(c2)OCO3)C1 (configuration not stated)
### Response No

### Prompt // outcome(item) with item = CC(C)C1=Cc2ccc3c(c2C(=O)C1=O)CCCC3
### Response No

====

System: OVCAR-3
Procedure text: NCI tumour cell line growth inhibition, 48 h
The source made the active and inactive calls. No stated cut-off is given here; in the data, active = GI50 up to about 1.1 µM and inactive = higher.
Measurement name: GI50

{"columns": ["Compound", "Measurement name", "Val"],
 "data": [
  ["CCNC(=O)COc1ccc(Br)cc1Br", "GI50", "> 100 µM (inactive)"],
  ["CC(C)C12Cc3c(ccc4ccccc34)OC1(C)Oc1ccc3ccccc3c1C2 (stereo unspecified)", "GI50", "59.7 µM (inactive)"]
]}

Record COC(=O)c1nc2c(C)c(O)c(O)c([C@H](C)CCC=C(C)C)c2o1 . Reported GI50: 26.5 µM (inactive)

====

System: OVCAR-3
Procedure text: NCI tumour cell line growth inhibition, 48 h
Active and inactive are the calls of the source. No stated cut-off is given here; in the data, active = GI50 up to about 1.1 µM and inactive = higher.
// one of Y = active, N = inactive, no free text

{"columns": ["Molecule", "Assay target", "Assigned category"],
 "data": [
  ["CCCCCCCCCCCCCC(=O)OC1CC(=O)OC1CO (stereo not given)", "OVCAR-3", "N"],
  ["Nc1ccc2c(c1)C(=O)c1c(F)cccc1-2", "OVCAR-3", "N"],
  ["O=C1NC(NNc2ccccc2)=N/C1=C\\c1ccco1", "OVCAR-3", "N"]
]}

### Prompt // outcome(item) with item = Cc1c(Br)c(Br)c(C)[s+]1[O-]
### Response N

### Prompt // outcome(item) with item = Cc1[nH]c(-c2ccccc2)c(O)c1C(=O)OC1CC(C)CCC1C(C)C (stereo not given)
### Response N

====

Tested on: OVCAR-3
Procedure text: NCI tumour cell line growth inhibition, 48 h
Calls of active or inactive are those of the source. Cut-off read from the data, not from the text of the source: active = GI50 up to about 1.1 µM and inactive = higher.
Examples of compounds with documented GI50 follow.

{"columns": ["Compound", "GI50"],
 "data": [
  ["c1ccc2c(-c3ccnc(-c4c[nH]c5ccccc45)n3)c[nH]c2c1", "6.4 µM (inactive)"],
  ["CCOC(=O)C1(Br)C(c2ccccc2)NC(=O)N(C2OC(COC(=O)c3ccccc3)C(OC(=O)c3ccccc3)C2OC(=O)c2ccccc2)C1(C)Br (stereo not given)", "29.6 µM (inactive)"],
  ["CCOCc1cc(=O)c2cc3c(cc2o1)OC(C)(C)CC3", "> 100 µM (inactive)"],
  ["O=c1c(Cl)cc2nc3ccccc3sc-2c1Cl", "1.98 µM (inactive)"]
]}

Attention now turns to another entry.
Summary: COc1cc2c(cc1OC)C(CC1=C(c3ccccc3)CN3CCc4cc(OC)c(OC)cc4C3C1)NCC2 (stereo not given) , OVCAR-3, GI50 = 17.3 µM (inactive)

====

Tested on: OVCAR-3
Procedure text: NCI tumour cell line growth inhibition, 48 h
Active and inactive are the calls of the source. Rule as the data show it: active = GI50 up to about 1.1 µM and inactive = higher.
Measurement name: GI50

Worked examples, 5 compounds total:
{"columns": ["Compound", "Assay target", "GI50"],
 "data": [
  ["NC(Cc1c[nH]c2ccc([N+](=O)[O-])cc12)C(=O)O (stereo unspecified)", "OVCAR-3", "> 100 µM (inactive)"],
  ["CCOC(=O)c1cc(Br)c(-c2onc(C)c2Br)[nH]1", "OVCAR-3", "> 100 µM (inactive)"],
  ["O=[N+]([O-])c1ccc(Cl)c(C2CC(c3cccc4ccccc34)=Nc3ccccc3[S+]2[O-])c1 (stereo unspecified)", "OVCAR-3", "22.6 µM (inactive)"],
  ["O=C(c1ccccc1)N1C2CCC1C(C(F)(F)F)=C2C(F)(F)F", "OVCAR-3", "> 100 µM (inactive)"],
  ["CC(=O)OC1=C2CC[C@@H]3C(CC[C@@]4(C)C3CC[C@@H]4OC(C)=O)[C@@]2(C)CC(C#N)C1=O (stereo partly specified)", "OVCAR-3", "21.2 µM (inactive)"]
]}

Attention now turns to another entry.
Record CCCCCCCCSC(=O)NCCCC . Reported GI50: 41.3 µM (inactive)
